Origin of values: ChEMBL document CHEMBL3507680

test: Human HepG2 cell viability assay in 384 well format; format: toxicity, cell-based; design: dose 125 nL, time 70.5 hour; concentration not given beside the values; conditions: HepG2 cells, read-out: Inhibition
Reported cytotoxicity at 70.5 h values are given for each entry in this list.
Give your result in % as a bare value.

- compound: "CCOCCCC(=O)NCCC(=O)N1CCN(c2ccccn2)CC1"
  measuredEndpoint: "cytotoxicity at 70.5 h"
  reportedMeasurement: -13.4
- compound: "O=C(c1ccncc1)N1CCc2onc(CN3CCCC3)c2C1"
  measuredEndpoint: "cytotoxicity at 70.5 h"
  reportedMeasurement: 18.4
- compound: "O=C(NC1COC2(CCN(Cc3ccccn3)CC2)C1)c1ccccn1 (stereo not drawn)"
  measuredEndpoint: "cytotoxicity at 70.5 h"
  reportedMeasurement: 3.59
- compound: "CN(CCCNC(=O)N1CCCC1c1ccsc1)c1ccccn1 (stereo not drawn)"
  measuredEndpoint: "cytotoxicity at 70.5 h"
  reportedMeasurement: 16.8

Ask | GET /values?readout=cytotoxicity at 70.5 h&item= `Nc1cc(O)nc(CCNC(=O)CC[C@@H]2CCCN3CCCC[C@H]23)n1`
Reply | -4.87

Ask | // query: `O=C(O)c1cc(-c2ccoc2)cc(S(=O)(=O)NC2CC2)c1`
Reply | -6.76

Ask | // query: CCn1ncc2c1CCCC2NCc1csc(C(C)C)n1 (stereo not drawn)
Reply | 0.0472

Ask | // query: `CC(C)N1CC[C@H](c2nc3ccc(C(F)(F)F)cc3[nH]2)C1`
Reply | -5.84

Ask | // query: `Cc1cc(NCC2(O)CCOCC2)c2ccccc2n1`
Reply | -4.68

Ask | // query: `Oc1cccc(-c2cc(CC3(N(CC4CC4)CC4CC4)COC3)no2)c1`
Reply | -6.61

Ask | // query: `O=C(NCCNc1cnccn1)N1CCN(Cc2cccnc2)CC1`
Reply | 33.3

Ask | // query: `COc1nccnc1-c1cc(NC2CCCC2)nc2[nH]ccc12`
Reply | -16.1

* * *

assay: Human HepG2 cell viability assay in 384 well format; assay type: toxicity, cell-based; set-up: dose 125 nL, time 70.5 hour; concentration not given beside the values; conditions: HepG2 cells, read-out: Inhibition
measuredEndpoint: cytotoxicity at 70.5 h (%)
Give your result in % as a bare value.

- molecule: "CCN(CC)S(=O)(=O)N1CCC(c2nccn2Cc2ccccn2)CC1"
  reportedMeasurement: 12.4
- molecule: "CC(Nc1cccc(Oc2ccc(C#N)cn2)c1)C(=O)NC1CC1 (centres undefined)"
  reportedMeasurement: -6.13
- molecule: "COc1ccccc1C(N)CC(C)C (centres undefined)"
  reportedMeasurement: -8.84
- molecule: "C=Cc1ccc(C(=O)NC2CCCc3nc(N(C)C)ncc32)cc1 (centres undefined)"
  reportedMeasurement: 16.1
- molecule: "COc1cc(C(=O)N2Cc3cnc(C(C)(C)C)nc3C2)ccn1"
  reportedMeasurement: -2.74
- molecule: "O=C(NCCc1nncn1C1CC1)C1(c2ccccc2)CCC1"
  reportedMeasurement: -5.9
- molecule: "Cc1ccc(OCc2ccc(C(=O)O)s2)cc1C"
  reportedMeasurement: -6.36
- molecule: "COc1ccc(NC(=O)CNc2cccc3c2CCCC3)c(OC)c1"
  reportedMeasurement: 29.7
- molecule: "CN(C)c1nccc(N(C)Cc2ncnn2C)n1"
  reportedMeasurement: -3.04
- molecule: "Cc1ccc(CN2CCC[C@]3(C(=O)O)CN(C)C[C@@H]3C2)s1"
  reportedMeasurement: -14.3

Ask | GET /values?readout=cytotoxicity at 70.5 h&item= `Cc1cc(N(C)Cc2c(C)noc2C)n2nc(C)c(C)c2n1`
Reply | 3.35

Ask | // query: Cc1nn(C)c(C)c1-c1cnc(C2CCCN(S(C)(=O)=O)C2)cn1 (centres undefined)
Reply | -9.63
